# System: HOP-62 complex spheroids with HUVEC/MSC, viability
# protocol-notes: Anticancer human tumor HOP-62 cell line growth inhibition [RAS];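 further: spheroids exposed to agents for seven days before readout; 100% = DMSO vehicle control viability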
# measurement-conditions: second compound 0.00949 µM; first compound 0.316 µM; hits give low values
readout-label: viability, T/C (%)
Output spec: scalar in %, unitless text.

Reference set, count: 3
Tell me measured viability, T/C for Nc1ccn(C2OC(CO)C(O)C2(F)F)c(=O)n1 (centres undefined) + CCn1c(-c2cc(N3CCN(C)CC3)cnc2C(C)OC)c2c3cc(ccc31)-c1csc(n1)CC(NC(=O)C1CC1C)C(=O)N1CCCC(N1)C(=O)OCC(C)(C)C2 please.
17.5

Tell me measured viability, T/C for C[C@@H](NC(=O)c1ncnc(N)c1Cl)c1ncc(C(=O)Nc2cc(C(F)(F)F)c(Cl)cn2)s1 + CCn1c(-c2cccnc2C(C)OC)c2c3cc(ccc31)N1CCOC(CC(NC(=O)C(C(C)C)N(C)C(=O)C3(F)CCN(C(=O)C#CC(C)(C)N(C)C)CC3)C(=O)N3CCCC(N3)C(=O)OCC(C)(C)C2)C1 please.
85.3

Tell me measured viability, T/C for CCN1CCN(Cc2ccc(Nc3ncc(F)c(-c4cc(F)c5nc(C)n(C(C)C)c5c4)n3)nc2)CC1 + CCn1c(-c2cc(N3CCN(C)CC3)cnc2C(C)OC)c2c3cc(ccc31)-c1csc(n1)CC(NC(=O)C1CC1C)C(=O)N1CCCC(N1)C(=O)OCC(C)(C)C2 please.
57.3

Turning now to a further record.
Tell me measured viability, T/C for CCC(CC)c1cc(NC2CCC(N)C2)n2nccc2n1 (centres undefined) + CCn1c(-c2cccnc2C(C)OC)c2c3cc(ccc31)N1CCOC(CC(NC(=O)C(C(C)C)N(C)C(=O)C3(F)CCN(C(=O)C#CC(C)(C)N(C)C)CC3)C(=O)N3CCCC(N3)C(=O)OCC(C)(C)C2)C1 please.
101
